Assay: Human HepG2 cell viability assay in 384 well format
Assay type: toxicity, cell-based
Design: dose 125 nL, time 70.5 hour; concentration not given beside the values
Details: HepG2 cells, read-out: Inhibition
# cytotoxicity at 70.5 h listing for each entry below
measurement_label: cytotoxicity at 70.5 h (%)

- molecule: "Cc1cccc(C(=O)N2CCC3(CC(C(=O)N(C)C(C)C)=NO3)C2)c1 (configuration not stated)"
  observed_result: -3.14
- molecule: "CC(OCC1CC1)C(=O)Nc1ncccc1I (configuration not stated)"
  observed_result: -6.4
- molecule: "CC(C)c1ncc(C(=O)N(C)c2ccc(Br)cn2)s1"
  observed_result: 5.45
- molecule: "CN1CCC2(CC1)CN(CC1CC1)CC21CCNC1=O (configuration not stated)"
  observed_result: -6.91
- molecule: "CSC(C)C(=O)Nc1ccnn1-c1ccccc1C (configuration not stated)"
  observed_result: 31.2
- molecule: "Cn1cc(NC(=O)c2cc[nH]n2)cc(Cl)c1=O"
  observed_result: -5.18
- molecule: "CCOCCN1CCn2c(C)nnc2C1"
  observed_result: 16.1
- molecule: "CN1CCC(c2nccnc2Nc2cnccn2)CC1"
  observed_result: -0.843
- molecule: "N#Cc1c(N)nc2c(c1-c1c[nH]nc1C1CCCCC1)COCC2"
  observed_result: 0.079
- molecule: "CN(C)C(=O)N1CCC2(CCCN(Cc3cnn(C)c3)C2)C1 (configuration not stated)"
  observed_result: 6.69
- molecule: "Cc1ccc(N2CCC3(CCCN3Cc3ccn(C)n3)CC2)nn1"
  observed_result: -2.31
- molecule: "CC(=O)c1ccc(N2CCCC(CO)(Cc3ccccc3C)C2)nc1 (configuration not stated)"
  observed_result: -3.1

* * *

Assay: Human HepG2 cell viability assay in 384 well format
Format: toxicity, cell-based
Design: dose 125 nL, time 70.5 hour; concentration not given beside the values
Conditions: HepG2 cells, read-out: Inhibition
cytotoxicity at 70.5 h values by entry

- compound: "CNC(=O)CS(=O)(=O)Cc1coc(-c2ccc(OC)cc2)n1"
  cytotoxicity at 70.5 h, %: -12.7
- compound: "CCCOC1Sc2nnc(C)n2N=C1c1ccccc1 (stereo unspecified)"
  cytotoxicity at 70.5 h, %: -9.6
- compound: "O=C(NC[C@H]1O[C@H](Cc2cc(-c3ccccn3)on2)CC[C@@H]1O)C1CC1"
  cytotoxicity at 70.5 h, %: -7.04
- compound: "COCC(=O)N1CCC(O)(CN2CCN(c3ccccc3)CC2)C1 (stereo unspecified)"
  cytotoxicity at 70.5 h, %: -1.6
- compound: "c1cncc(C2COC3(CCN(Cc4ccsc4)CC3)C2)c1 (stereo unspecified)"
  cytotoxicity at 70.5 h, %: -3.18
- compound: "Cc1c(NCc2cccnc2)cccc1C(=O)N1CCC(N(C)C)C1 (stereo unspecified)"
  cytotoxicity at 70.5 h, %: -5.39
- compound: "Cn1cnnc1C1CCN(C(=O)c2cc(-c3ccccc3)on2)CC1"
  cytotoxicity at 70.5 h, %: 25.4
- compound: "O=C(NCc1ccccc1-n1cccn1)N1CCN2CCCCC2C1 (stereo unspecified)"
  cytotoxicity at 70.5 h, %: 1.19
- compound: "Cc1nc[nH]c1CN1CCCC12CCN(c1nc3ccccc3s1)CC2"
  cytotoxicity at 70.5 h, %: -1.37
- compound: "Cc1ccccc1CN(C)C(=O)Cn1nc(-c2ccc(F)cc2)oc1=O"
  cytotoxicity at 70.5 h, %: 29.6
- compound: "COc1ccccc1OCCNC(=O)NCc1nc(C)no1"
  cytotoxicity at 70.5 h, %: -6.75
- compound: "CCN1Cc2cc(F)ccc2N(CC(O)C(F)(F)F)CCC1=O (stereo unspecified)"
  cytotoxicity at 70.5 h, %: -8.41
- compound: "CC(CC(=O)Nc1ncn(CC(=O)N2CCCCCC2)n1)C1CC1 (stereo unspecified)"
  cytotoxicity at 70.5 h, %: 0.138
- compound: "Cc1cc(CCC2CN(CC3(O)CCCCC3)CCO2)ncn1 (stereo unspecified)"
  cytotoxicity at 70.5 h, %: 19.4
- compound: "NC(=O)CCNC(=O)C1(N2CCCCC2)Cc2ccccc2C1"
  cytotoxicity at 70.5 h, %: 9.16
- compound: "CC(=O)c1cccc(OCCCC(=O)N(C)Cc2cscn2)c1"
  cytotoxicity at 70.5 h, %: 7.32
- compound: "Fc1cccc(CN2CCC[C@H](Cn3nnc(-c4ccccn4)n3)C2)c1"
  cytotoxicity at 70.5 h, %: -4.05
- compound: "CC1=C(CCN2CCCC(O)C2)C(C)(C)CCC1 (stereo unspecified)"
  cytotoxicity at 70.5 h, %: 18.9
- compound: "Cc1cc(C)n(C2CCN(c3ncnc4c3CCNCC4)C2)n1 (stereo unspecified)"
  cytotoxicity at 70.5 h, %: -9.03
- compound: "Cc1cc(C)c(CNC(=O)NCC(O)c2ccc(Cl)cc2)c(=O)[nH]1 (stereo unspecified)"
  cytotoxicity at 70.5 h, %: -4.37
- compound: "CCn1c(N)nc2cc(C(=O)N3CC(c4ccccn4)C3)cnc21"
  cytotoxicity at 70.5 h, %: -5.92
- compound: "CN1[C@H](Cn2cncn2)C[C@@H]2CN(Cc3cccc(C#N)c3)CC[C@@H]21"
  cytotoxicity at 70.5 h, %: -6.46
- compound: "COc1cc2cc(C(=O)NCC(=O)O)n(C)c2c(OC)c1OC"
  cytotoxicity at 70.5 h, %: 31.9
- compound: "O=C1NCCN1CCNc1cc(-c2ccccc2)nc2ccnn12"
  cytotoxicity at 70.5 h, %: -2.75
- compound: "COCCN1CCC2(CC1)CN(C(=O)c1ccco1)CCO2"
  cytotoxicity at 70.5 h, %: 12.3
- compound: "CCCn1nc(C)c(CNC(=O)C2COc3c(cccc3OC)C2)c1C (stereo unspecified)"
  cytotoxicity at 70.5 h, %: -10.5
- compound: "CN(C)CCCNC(=O)c1ccc(N(C)S(C)(=O)=O)cc1Cl"
  cytotoxicity at 70.5 h, %: -5.53
- compound: "CC1c2ncc(Cn3cncn3)n2CCN1C1CCOCC1 (stereo unspecified)"
  cytotoxicity at 70.5 h, %: 2.73
- compound: "Cc1ccc(F)cc1CC(=O)N(CCN1CCOCC1)Cc1ccco1"
  cytotoxicity at 70.5 h, %: -6.95
- compound: "c1cc(CN2CC[C@H]3C[C@H](c4nc(C5CC5)cs4)O[C@@H]3C2)ccn1"
  cytotoxicity at 70.5 h, %: -7.31
- compound: "COc1ccc2c(c1)c(C(=O)Nc1n[nH]c(C(C)C)n1)cn2C(C)C"
  cytotoxicity at 70.5 h, %: 40.7
- compound: "CN(C)S(=O)(=O)N1CCCC1c1cccc(-n2ccnc2)n1 (stereo unspecified)"
  cytotoxicity at 70.5 h, %: -4.96
- compound: "Cc1nn(C)c(N(C)C)c1CNCCNS(C)(=O)=O"
  cytotoxicity at 70.5 h, %: -7.58
- compound: "CN(C)C1(CNC(=O)Cc2ccc(F)cc2)CCOCC1"
  cytotoxicity at 70.5 h, %: -5.15
- compound: "CC(C)NS(=O)(=O)c1cc(C(=O)O)cc(-n2cc3c(n2)CCC3)c1"
  cytotoxicity at 70.5 h, %: -0.272
- compound: "CC(C)(C)c1csc(CN2CCN(S(=O)(=O)c3cccnc3)CC2)n1"
  cytotoxicity at 70.5 h, %: -14.8
- compound: "NCCc1n[nH]c(=O)n1-c1cccc(Cl)c1Cl"
  cytotoxicity at 70.5 h, %: -3.82
- compound: "Cc1nc2cc(C(=O)N3C[C@@H](C(=O)O)[C@H](c4ccncc4)C3)ccc2[nH]1"
  cytotoxicity at 70.5 h, %: -3.63
- compound: "O=C1[C@@H]2CN(c3ncccc3Cl)C[C@]2(C(=O)O)CN1CC1CC1"
  cytotoxicity at 70.5 h, %: -7.05
- compound: "CN(C)c1nc(NCc2cccnc2N)ncc1F"
  cytotoxicity at 70.5 h, %: 0.515
- compound: "c1csc(N2CCCN(Cc3noc(C4CC4)n3)CC2)n1"
  cytotoxicity at 70.5 h, %: -11.8
- compound: "CCN(C)S(=O)(=O)NCC(O)c1c(Cl)cccc1Cl (stereo unspecified)"
  cytotoxicity at 70.5 h, %: 18.4
- compound: "O=S(=O)(c1ccc(Cl)cc1)N1CCc2nc(C3CCNCC3)ncc2C1"
  cytotoxicity at 70.5 h, %: -4.46
- compound: "O=c1[nH]c2c(-c3ccccn3)nsc2c(=O)n1CC1CCCO1 (stereo unspecified)"
  cytotoxicity at 70.5 h, %: -11.7
- compound: "O=S(=O)(c1ccccc1)N1CCCC(Cn2cncn2)C1 (stereo unspecified)"
  cytotoxicity at 70.5 h, %: -4.76
- compound: "O=C(O)c1ccc(S(=O)(=O)Nc2cccc(CC(F)(F)F)c2)c(F)c1"
  cytotoxicity at 70.5 h, %: -7.64
